# Tested on: Rattus norvegicus
# experimental-details: Compound was evaluated for percent tranexamic acid recovered in rat urine within 24 hr after oral administration of 0.1 mmol/kg of body weight per mole of pro drug
# Assay type: ADME, organism-based
# reported-conditions: in vivo
measurement-type: Absorption (%)

1) Cl.NCc1ccc(C(=O)OCOC(=O)[C@H]2CC[C@H](CN)CC2)cc1 :: 35
2) Cl.NC[C@H]1CC[C@H](C(=O)Oc2ccc(CCC(=O)O)cc2)CC1 [CETRAXATE HYDROCHLORIDE] :: 28
3) CC(C)(C)C(=O)NCOC(=O)[C@H]1CC[C@H](CN)CC1.Cl :: 22
4) CC(=O)OC(C)OC(=O)[C@H]1CC[C@H](CN)CC1.Cl (stereo partly drawn) :: 59
5) CCC(OC(=O)[C@H]1CC[C@H](CN)CC1)OC(=O)[C@H]1CC[C@](C)(CN)CC1.Cl.Cl (stereo partly drawn) :: 26
6) CC(C)(C)C(=O)OCOC(=O)[C@H]1CC[C@H](CN)CC1.Cl :: 36
7) CC(OC(=O)[C@H]1CC[C@H](CN)CC1)OC(=O)[C@H]1CC[C@](C)(CN)CC1.Cl.Cl (stereo partly drawn) :: 42
8) C[C@]1(CN)CC[C@H](C(=O)OCOC(=O)[C@H]2CC[C@H](CN)CC2)CC1.Cl.Cl :: 50

* * *

# experimental-details: Half-life in buffer at pH 1.2
# Format: ADME
Class met: half-life at least 20 h. Class not met: half-life below 20 h.

1) CC(C)OC(=O)OC(C)OC(=O)[C@H]1CC[C@H](CN)CC1.Cl (stereo partly drawn) :: met
2) CN(C)C(=O)C(OC(=O)[C@H]1CC[C@H](CN)CC1)OC(=O)[C@H]1CC[C@](C)(CN)CC1.Cl.Cl (stereo partly drawn) :: met
3) CCOC(=O)OC(C)OC(=O)[C@H]1CC[C@H](CN)CC1.Cl (stereo partly drawn) :: met
4) CC(C)(C)C(=O)NCOC(=O)[C@H]1CC[C@H](CN)CC1.Cl :: not met
5) CC(C)C(=O)OCOC(=O)[C@H]1CC[C@H](CN)CC1.Cl :: not met
6) CCC(OC(=O)[C@H]1CC[C@H](CN)CC1)OC(=O)[C@H]1CC[C@](C)(CN)CC1.Cl.Cl (stereo partly drawn) :: met
7) CC(=O)OC(C)OC(=O)[C@H]1CC[C@H](CN)CC1.Cl (stereo partly drawn) :: not met
8) CC(OC(=O)C(C)C)OC(=O)[C@H]1CC[C@H](CN)CC1.Cl (stereo partly drawn) :: met

Where do the numbers come from? From ChEMBL document CHEMBL1123423.
